We begin with a simple list: items and their reported IC50.
# target_entity: Y641N EZH2 (Homo sapiens, UniProt Q15910, Y641N)
# Sequence (Q15910 whole entry Y641N): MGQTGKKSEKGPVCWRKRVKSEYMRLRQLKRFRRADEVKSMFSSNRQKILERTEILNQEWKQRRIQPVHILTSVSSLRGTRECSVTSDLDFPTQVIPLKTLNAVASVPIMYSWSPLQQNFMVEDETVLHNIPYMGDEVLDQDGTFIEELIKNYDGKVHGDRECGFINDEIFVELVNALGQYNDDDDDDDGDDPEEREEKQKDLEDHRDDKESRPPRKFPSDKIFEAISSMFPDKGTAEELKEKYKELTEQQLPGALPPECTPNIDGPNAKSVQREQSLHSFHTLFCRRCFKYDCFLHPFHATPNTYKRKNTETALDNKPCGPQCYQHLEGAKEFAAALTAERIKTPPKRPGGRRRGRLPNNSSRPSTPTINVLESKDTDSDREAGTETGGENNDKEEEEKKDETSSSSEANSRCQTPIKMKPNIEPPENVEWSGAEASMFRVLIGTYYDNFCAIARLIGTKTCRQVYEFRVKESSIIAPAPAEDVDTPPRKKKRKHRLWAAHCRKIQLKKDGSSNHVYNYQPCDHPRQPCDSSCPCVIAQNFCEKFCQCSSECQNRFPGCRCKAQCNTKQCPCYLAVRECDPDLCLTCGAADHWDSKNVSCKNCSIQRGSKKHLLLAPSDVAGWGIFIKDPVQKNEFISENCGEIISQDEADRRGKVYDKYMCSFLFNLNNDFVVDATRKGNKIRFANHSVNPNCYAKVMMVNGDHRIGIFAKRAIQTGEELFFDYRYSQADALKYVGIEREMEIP
# Sequence (O75530 whole entry partner): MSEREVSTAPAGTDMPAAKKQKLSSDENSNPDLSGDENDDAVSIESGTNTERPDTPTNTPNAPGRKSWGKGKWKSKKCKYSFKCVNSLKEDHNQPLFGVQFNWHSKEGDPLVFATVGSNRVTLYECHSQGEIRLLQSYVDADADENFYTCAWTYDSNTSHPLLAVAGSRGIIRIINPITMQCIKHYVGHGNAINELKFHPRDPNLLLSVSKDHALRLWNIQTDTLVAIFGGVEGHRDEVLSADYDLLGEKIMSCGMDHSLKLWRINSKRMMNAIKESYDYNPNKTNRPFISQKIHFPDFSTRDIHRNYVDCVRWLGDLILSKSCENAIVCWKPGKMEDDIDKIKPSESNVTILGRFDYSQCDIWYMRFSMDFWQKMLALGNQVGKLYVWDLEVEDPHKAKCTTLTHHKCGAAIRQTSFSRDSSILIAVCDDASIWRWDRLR
# Sequence (Q15022 whole entry partner): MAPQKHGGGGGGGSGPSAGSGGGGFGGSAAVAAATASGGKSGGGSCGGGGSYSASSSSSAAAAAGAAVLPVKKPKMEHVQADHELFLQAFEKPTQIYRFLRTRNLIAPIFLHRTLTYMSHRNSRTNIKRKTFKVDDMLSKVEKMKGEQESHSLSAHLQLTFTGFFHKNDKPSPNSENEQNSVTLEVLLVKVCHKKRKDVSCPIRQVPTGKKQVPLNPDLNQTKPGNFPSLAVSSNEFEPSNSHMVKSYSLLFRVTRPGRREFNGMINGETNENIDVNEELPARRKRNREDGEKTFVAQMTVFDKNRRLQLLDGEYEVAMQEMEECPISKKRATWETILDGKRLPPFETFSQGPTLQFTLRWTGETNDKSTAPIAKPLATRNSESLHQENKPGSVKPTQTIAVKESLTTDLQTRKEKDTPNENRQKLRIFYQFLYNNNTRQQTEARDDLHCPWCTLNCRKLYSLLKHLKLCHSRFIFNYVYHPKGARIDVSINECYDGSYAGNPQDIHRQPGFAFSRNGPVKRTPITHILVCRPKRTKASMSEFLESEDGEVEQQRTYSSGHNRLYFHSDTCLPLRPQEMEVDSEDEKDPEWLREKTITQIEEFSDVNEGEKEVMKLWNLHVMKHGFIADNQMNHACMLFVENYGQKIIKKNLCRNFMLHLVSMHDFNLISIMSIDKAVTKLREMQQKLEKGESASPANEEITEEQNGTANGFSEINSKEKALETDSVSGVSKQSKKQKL
# assay_protocol: Y641N EZH2 assay: as EZH2 assay, with reconstituted H3K27Me2 oligonucleosomes as substrate
# Type: biochemical
# test_context: Y641N EZH2 IC50, Y641N mutant EZH2, H3K27Me2 oligonucleosome substrate

| compound | IC50 |
| --- | --- |
| COc1cc(C)[nH]c(=O)c1CNC(=O)c1c(C)n(C(C)C2CCN(c3ccccn3)CC2)c2ccccc12 (single isomer, unassigned) [Compound 373] | < 100 nM |
| COc1cc(C)[nH]c(=O)c1CNC(=O)c1c(C)n(C(C)C(C)OC)c2ncccc12 (single isomer, unassigned) [Compound 261] | < 100 nM |
| COc1ncc2c(C(=O)NCc3c(C)cc(C)nc3O)c(C)n([C@H](C)c3ccccc3)c2n1 [Compound 141] | 1000 to 10000 nM |
| COCC(C)n1c(C)c(C(=O)NCc2c(OC)cc(C)[nH]c2=O)c2cccnc21 (single isomer, unassigned) [Compound 257] | 1000 to 10000 nM |
| CCCc1cc(C)[nH]c(=O)c1CNC(=O)c1c(C)n(C(C)COC)c2ncccc12 (racemic) [Compound 216] | 1000 to 10000 nM |
| Cc1cc(C)c(CNC(=O)c2c(C)n(C(C)c3ccccc3)c3cccnc23)c(O)n1 (racemic) [Compound 126] | 1000 to 10000 nM |
